- System: E. coli TEM9 2639E
- testProtocol: MIC, two-fold agar dilution
- Assay type: cell-based
- assayConditions: Muller-Hinton agar, 37° C., 20 hours
measuredMetric: minimal inhibitory concentration (MIC)
Note: the reply should be a number with no unit written.

Query :: What minimal inhibitory concentration (MIC) value was documented for this compound, Cc1c(N)nc(SCC2=C(C(=O)O)N3C(=O)[C@@H](NC(=O)/C(=N\O[C@H](C(=O)O)c4ccc(O)c(O)c4)c4csc(N)n4)[C@H]3SC2)nc1N [Compound I-2S] ?
Result :: 0.25

Query :: Quick check: minimal inhibitory concentration (MIC) of Nc1nc(/C(=N/O[C@@H](C(=O)O)c2ccc(O)c(O)c2)C(=O)N[C@@H]2C(=O)N3C(C(=O)O)=C(CSc4nc(N)c(N)c(N)n4)CS[C@H]23)cs1 [Compound I-5R] ?
Result :: 0.5

Query :: Which minimal inhibitory concentration (MIC) value belongs to Nc1cc(SCC2=C(C(=O)O)N3C(=O)[C@@H](NC(=O)/C(=N\O[C@@H](C(=O)O)c4ccc(O)c(O)c4)c4csc(N)n4)[C@H]3SC2)nc(N)n1 [Compound I-6R] ?
Result :: 0.25

Query :: Which minimal inhibitory concentration (MIC) reading was recorded for the compound Nc1ccnc(SCC2=C(C(=O)O)N3C(=O)[C@@H](NC(=O)/C(=N\O[C@H](C(=O)O)c4ccc(O)c(O)c4)c4csc(N)n4)[C@H]3SC2)n1 [Compound I-3S] ?
Result :: 0.25

* * *

Provide the reported minimal inhibitory concentration (MIC) of each item.
- System: Staphylococcus aureus 241
- testProtocol: MIC, two-fold agar dilution
- Format: cell-based
- assayConditions: Muller-Hinton agar, 37° C., 20 hours
API doc: respond with a numeric literal and nothing else, no unit.

Query :: Reported minimal inhibitory concentration (MIC), compound Cc1c(N)nc(SCC2=C(C(=O)O)N3C(=O)[C@@H](NC(=O)/C(=N\O[C@H](C(=O)O)c4ccc(O)c(O)c4)c4csc(N)n4)[C@H]3SC2)nc1N [Compound I-2S] : ____
Result :: 64

Query :: Dear colleague, I am looking for the recorded minimal inhibitory concentration (MIC) of the following compound: Nc1cc(SCC2=C(C(=O)O)N3C(=O)[C@@H](NC(=O)/C(=N\O[C@H](C(=O)O)c4ccc(O)c(O)c4)c4csc(N)n4)[C@H]3SC2)nc(N)n1 [Compound I-6S]
Result :: 64

Query :: Report minimal inhibitory concentration (MIC) for Nc1cc(N)nc(SCC2=C(C(=O)O)N3C(=O)[C@@H](NC(=O)/C(=N\O[C@H](C(=O)O)c4ccc(O)c(O)c4)c4csc(N)n4)[C@H]3SC2)n1 [Compound I-1S] please.
Result :: 64

Query :: Look at this compound and give its reported minimal inhibitory concentration (MIC). Nc1cc(SCC2=C(C(=O)O)N3C(=O)[C@@H](NC(=O)/C(=N\O[C@@H](C(=O)O)c4ccc(O)c(O)c4)c4csc(N)n4)[C@H]3SC2)ncn1 [Compound I-7R]
Result :: 128

* * *

So I've got a bunch of molecules here, and I need their minimal inhibitory concentration (MIC) values.
- System: E. coli TEM7 3457E
- testProtocol: MIC, two-fold agar dilution
- Format: cell-based
- assayConditions: Muller-Hinton agar, 37° C., 20 hours
Would you mind answering with just the numeric figure?

Query :: What value of minimal inhibitory concentration (MIC) on E. coli TEM7 3457E does Cc1c(N)nc(SCC2=C(C(=O)O)N3C(=O)[C@@H](NC(=O)/C(=N\O[C@@H](C(=O)O)c4ccc(O)c(O)c4)c4csc(N)n4)[C@H]3SC2)nc1N [Compound I-2R] have?
Result :: 0.016

Query :: What minimal inhibitory concentration (MIC) appears in the records for this molecule with E. coli TEM7 3457E? Nc1cc(SCC2=C(C(=O)O)N3C(=O)[C@@H](NC(=O)/C(=N\O[C@H](C(=O)O)c4ccc(O)c(O)c4)c4csc(N)n4)[C@H]3SC2)ncn1 [Compound I-7S]
Result :: 0.016
